Target: Vascular endothelial growth factor receptor 1 (Homo sapiens)
Test: Inhibition of recombinant human FLT1 (783 to end residues) assessed as residual activity at 1 uM using KKKSPGEYVNIEFG as substrate incubated for 40 mins by [gamma-33P]-ATP scintillation counting based radiometry assay relative to control
Property Name: Activity (%)
Numbers only here, please. The scale is %.

Answered cases to consult:
CN(C)c1ccc(Nc2ncnc3sc4c(c23)CCN(C(=O)c2ncccn2)C4)cc1NC(=O)c1cccs1; 104
CN(C)c1ccc(Nc2ncnc3sc4c(c23)CCN(C(=O)c2ncccn2)C4)cc1NC(=O)c1ccco1; 101
CN1CCN(CCCN2CCc3c(sc4ncnc(Nc5ccc(N(C)C)c(NC(=O)c6cccs6)c5)c34)C2)CC1; 98
CN(C)c1ccc(Nc2ncnc3sc4c(c23)CCNC4)cc1NC(=O)c1ccccn1; 96
CCC(=O)Nc1cc(Nc2ncnc3sc4c(c23)CCN(CCCN2CCOCC2)C4)ccc1N(C)C; 90
CN1CCc2c(sc3ncnc(Nc4ccc(N(C)C)c(NC(=O)c5ccncc5)c4)c23)C1; 105
CN(C)c1ccc(Nc2ncnc3sc4c(c23)CCN(C(=O)c2ccccn2)C4)cc1NC(=O)c1cccs1; 87
CN(C)c1ccc(Nc2ncnc3sc4c(c23)CCN(C(=O)c2cccnc2)C4)cc1NC(=O)c1ccco1; 89
CN1CCc2c(sc3ncnc(Nc4ccc(N(C)C)c(NC(=O)c5cccs5)c4)c23)C1; 108
CN1CCc2c(sc3ncnc(Nc4ccc(N(C)C)c(NC(=O)c5cccnc5)c4)c23)C1; 103

Input line: Requested field: Activity. Item: CCC(=O)Nc1cc(Nc2ncnc3sc4c(c23)CCN(C(=O)c2ccc(C(F)(F)F)cc2)C4)ccc1N(C)C
Output line: 109

Input line: Any idea what Activity was measured for Cc1ccc(C(=O)Nc2cc(Nc3ncnc4sc5c(c34)CCN(C)C5)ccc2N(C)C)cc1 ?
Output line: 97

The reported measurements were obtained from ChEMBL document CHEMBL4765301.
